EXPERIMENTAL_PROTOCOL: NCI Yeast Anticancer Drug Screen. Data for the rad50 strain (AID 155);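 also: 0% = growth of vehicle-only cultures of the same strain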
CONDITION_PARAMETERS: S. cerevisiae rad50 strain growth inhibition; at 50.0 µM (retest, dose inferred, filed as 5.0)
Compounds without any hit were thinned out: in the full panel of roughly 79,000, 15% have a hit. Activity calls are given as the source filed them. Rule as the data show it: active = growth inhibition above about 70%; inactive = the rest.
Tick one outcome: active, inactive

**Query** Identify the outcome logged in this assay for the compound shown: "C/C=C/C1=C(Cl)C(=O)[C@@H](Cl)[C@@]1(O)C(=O)OC"
**Result** active

**Query** Identify the outcome logged in this assay for the compound shown: CC1(C)CCCC12C=NCC2 (stereo unspecified)
**Result** inactive

**Query** Identify the outcome logged in this assay for the compound shown: CCOCCOC(=O)C(C)O (stereo unspecified)
**Result** inactive

**Query** Identify the outcome logged in this assay for the compound shown: "CS(=O)(=O)OCCN(CCOS(C)(=O)=O)c1ccc(C=Nc2cc(Cl)c(O)c(Cl)c2)c(Cl)c1"
**Result** inactive

**Query** Identify the outcome logged in this assay for the compound shown: COc1ccc(C(=O)C(c2ccc(OC)cc2)C2(O)C(=O)Nc3c(Cl)cc(Cl)cc32)cc1 (stereo unspecified)
**Result** inactive

**Query** Identify the outcome logged in this assay for the compound shown: "O=C(CC(=O)c1ccc(O)cc1)c1ccccc1"
**Result** inactive

**Query** Identify the outcome logged in this assay for the compound shown: C=C1C(=O)C23C(O)C1CC[C@H]2C12CCCC(C)(COC(C)=O)[C@H]1[C@H](O)[C@]3(O)OC2 (stereo partly specified)
**Result** active

**Query** Identify the outcome logged in this assay for the compound shown: "CCC(=O)N(CCC(C)C)c1ccccc1"
**Result** inactive

**Query** Identify the outcome logged in this assay for the compound shown: "O=C(O)c1ccc2cc3ccccc3cc2c1"
**Result** inactive

**Query** Identify the outcome logged in this assay for the compound shown: C/C(=N\NC(N)=S)C(CN1CCCCC1)C(C1=C(O)c2ccccc2OC1)c1ccccc1 (stereo unspecified)
**Result** inactive

**Query** Identify the outcome logged in this assay for the compound shown: COC(=O)C1=C(NC(=O)Nc2ccc(Cl)cc2)OC(C)(C)C1c1ccc(Cl)cc1 (stereo unspecified)
**Result** active

**Query** Identify the outcome logged in this assay for the compound shown: "O=NNc1ncc(Sc2ccccc2)nc1Sc1ccccc1"
**Result** inactive

**Query** Identify the outcome logged in this assay for the compound shown: "CC(C)OC(=O)CCCCCC1CCCCC1"
**Result** inactive

**Query** Identify the outcome logged in this assay for the compound shown: CC(C)(C)c1cc(C2c3cc4c(cc3OC(O)(CO)C2C(=O)O)OCO4)cc(C(C)(C)C)c1O (stereo unspecified) (tested in a mixture with another compound)
**Result** inactive

**Query** Identify the outcome logged in this assay for the compound shown: "FC(F)(F)c1ccc(-c2ccc(OCCN3CCCC3)cc2)cc1"
**Result** inactive

**Query** Identify the outcome logged in this assay for the compound shown: "N#Cc1ccc(C(F)(F)F)cc1[N+](=O)[O-]"
**Result** active

**Query** Identify the outcome logged in this assay for the compound shown: "CCc1cccc(C(C)(C)C)c1NC(=S)/N=C/C(C(=O)c1ccccc1)=C(\O)c1ccccc1"
**Result** active

**Query** Identify the outcome logged in this assay for the compound shown: "CCn1c2ccc([N+](=O)[O-])cc2c2c([N+](=O)[O-])c(-n3cccc3)ccc21"
**Result** inactive

**Query** Identify the outcome logged in this assay for the compound shown: O=C(c1ccccc1)C1N=NCC1c1ccc([N+](=O)[O-])cc1 (stereo unspecified)
**Result** inactive

**Query** Identify the outcome logged in this assay for the compound shown: "Nc1ccc(-c2ccc(N)cc2S(=O)(=O)O)c(S(=O)(=O)O)c1"
**Result** inactive

**Query** Identify the outcome logged in this assay for the compound shown: "O=C(/C=C\c1ccccc1)/C=C/c1ccccc1"
**Result** inactive

**Query** Identify the outcome logged in this assay for the compound shown: CCC(c1ccccc1)N1C(=O)c2ccccc2S1(=O)=O (stereo unspecified)
**Result** inactive

**Query** Identify the outcome logged in this assay for the compound shown: "O=C1C=CC(=O)c2ccc(=O)ccc21"
**Result** active

**Query** Identify the outcome logged in this assay for the compound shown: O=C(Nc1nc2ccc([N+](=O)[O-])cc2s1)C(=O)C(C1OC(=O)c2ccccc21)[N+](=O)[O-] (stereo unspecified)
**Result** inactive

**Query** Identify the outcome logged in this assay for the compound shown: OC1CCCCC1Cc1ccc(Cl)cc1 (stereo unspecified)
**Result** inactive

**Query** Identify the outcome logged in this assay for the compound shown: COc1ccc2c(c1)CCC1OC(c3cccnc3)OC21 (stereo unspecified)
**Result** inactive

**Query** Identify the outcome logged in this assay for the compound shown: "O=C(SCCCc1ccccc1)c1cc([N+](=O)[O-])cc([N+](=O)[O-])c1"
**Result** active

**Query** Identify the outcome logged in this assay for the compound shown: "CC(C)C(=O)c1ccc([N+](=O)[O-])o1"
**Result** active

**Query** Identify the outcome logged in this assay for the compound shown: "Cc1cc(Cl)n2c(nc3ccccc32)c1C#N"
**Result** active

**Query** Identify the outcome logged in this assay for the compound shown: Cc1c(Cl)ccc2c(C(O)CNCc3ccccc3)cc(-c3ccc(Cl)cc3)nc12 (stereo unspecified)
**Result** active

**Query** Identify the outcome logged in this assay for the compound shown: "C#CCOC(=O)Nc1nc2ccc(SC#N)cc2s1"
**Result** active

**Query** Identify the outcome logged in this assay for the compound shown: "COC(=O)/C=C/c1cccc[n+]1[O-]"
**Result** inactive

**Query** Identify the outcome logged in this assay for the compound shown: "Cc1ccc2c(c1)CSCCO2"
**Result** active

**Query** Identify the outcome logged in this assay for the compound shown: "COC(=O)c1ccc(SCC(=O)c2ccc([N+](=O)[O-])o2)cc1"
**Result** active

**Query** Identify the outcome logged in this assay for the compound shown: "COc1ccccc1N=Nc1c(N)nc(N)[nH]c1=O"
**Result** inactive

**Query** Identify the outcome logged in this assay for the compound shown: "COC(=O)c1ccccc1C(=O)c1cc(OC)c2c(c1OC)CCCC2"
**Result** inactive

**Query** Identify the outcome logged in this assay for the compound shown: "COC(=O)[C@H]1[C@@H](C(C)C)O[C@@H](C(C)C)O[C@H]1C(F)(F)F"
**Result** inactive

**Query** Identify the outcome logged in this assay for the compound shown: "O=c1c2ccccc2[nH]c2c1[nH]c1ccccc12"
**Result** inactive

**Query** Identify the outcome logged in this assay for the compound shown: CCCCNC(=O)OCCN=C1c2ccccc2C(Br)C(Br)c2ccccc21 (stereo unspecified)
**Result** inactive

**Query** Identify the outcome logged in this assay for the compound shown: "C=C(CN(C)C)C(=O)c1ccccc1Cl"
**Result** active

**Query** Identify the outcome logged in this assay for the compound shown: "CCOc1ccc2c(c1)nc1cc(Cl)ccc1[n+]2C"
**Result** active

###

EXPERIMENTAL_PROTOCOL: NCI Yeast Anticancer Drug Screen. Data for the mec2-1 strain (AID 157)
CONDITION_PARAMETERS: S. cerevisiae mec2-1 strain, at 50.0 µM, active compounds read high
The panel holds about 79,000 compounds, 15% with a hit somewhere; the sample as a whole holds those more often.
ASSAY_ENDPOINT: growth inhibition (%)
Could you give me the number in %? Just the number is fine.

**Query** # get_value(readout='growth inhibition', item= "O=[N+]([O-])/C(C(Cl)=C(Cl)Cl)=C(/Sc1ccccc1)N1CCCCC1" )
**Result** 88.5

**Query** # get_value(readout='growth inhibition', item= COC1=CC(=O)c2c(O)c3c(c(O)c2C1=O)OC1(Oc2c(cc4cc(C)oc(=O)c4c2O)CC1O)C3O (stereo not given) )
**Result** 92.5

**Query** # get_value(readout='growth inhibition', item= "N=C(N)SCc1nc(-c2ccc(Cl)cc2)no1" )
**Result** 87.5

**Query** # get_value(readout='growth inhibition', item= "CC(C)c1ccc2c(c1)CC[C@@H]1[C@](C)(CO)CCC[C@]21C" )
**Result** 89.8

**Query** # get_value(readout='growth inhibition', item= "c1ccc(COc2cccc3[nH]ccc23)cc1" )
**Result** 90.2

###

For each record, write down the corresponding growth inhibition.
EXPERIMENTAL_PROTOCOL: NCI Yeast Anticancer Drug Screen. Data for the cln2 rad14 strain (AID 165);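 also: 0% = growth equal to vehicle treated cultures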
CONDITION_PARAMETERS: S. cerevisiae cln2 rad14 strain, at 50.0 µM (retest, dose inferred, filed as 5.0), active compounds read high
About 79,000 compounds went through this panel and 15% of them were active in at least one assay; those are over-represented in the sample as a whole.
Could you give me the number in %? Just the number is fine.

**Query** # get_value(readout='growth inhibition', item= CC12C=C3CC(OC(=O)c4ccccc4)CCC3(O1)c1ccccc12 (stereo not given) )
**Result** 2

**Query** # get_value(readout='growth inhibition', item= "CCCCCCCCCCCCCCCBr" )
**Result** -5

**Query** # get_value(readout='growth inhibition', item= COc1ccc(C2CC(c3c(O)ccc4ccccc34)=NN2)cc1OC (stereo not given) )
**Result** 97

**Query** # get_value(readout='growth inhibition', item= "CCOC(=O)/C(=N/NS(=O)(=O)c1c(C)cc(C)cc1C)c1ccco1" )
**Result** -4

**Query** # get_value(readout='growth inhibition', item= "CC(=O)OC[C@@H](OC(C)=O)[C@H](OC(C)=O)c1cnn(-c2ccccc2)n1" )
**Result** -2

**Query** # get_value(readout='growth inhibition', item= "O=C/C=C/c1cc([N+](=O)[O-])ccc1Cl" )
**Result** 46

**Query** # get_value(readout='growth inhibition', item= O=C(OC12CCCCC1CCCC2)c1ccc([N+](=O)[O-])cc1 (stereo not given) )
**Result** 99

**Query** # get_value(readout='growth inhibition', item= "O=[N+]([O-])c1ccc(O)c(/C=N\NC(=S)Nc2ccc3cn[nH]c3c2)c1" )
**Result** 37

**Query** # get_value(readout='growth inhibition', item= CCCCCCCCCCCC(=O)N(CCCCCCCCC)CC(O)C(O)C(OC1OC(CO)C(O)C(O)C1O)C(O)CO (stereo not given) )
**Result** 91

**Query** # get_value(readout='growth inhibition', item= "O=C(c1ccccc1)C(C(=O)c1ccccc1)c1ccc2ccccc2n1" )
**Result** 1

**Query** # get_value(readout='growth inhibition', item= CCc1cc(-c2ccco2)c(C#N)c(=S)n1C1OC(COC(C)=O)C(OC(C)=O)C(OC(C)=O)C1OC(C)=O (stereo not given) )
**Result** 22

**Query** # get_value(readout='growth inhibition', item= "O=[N+]([O-])c1ccc(-c2ccccc2Cl)c([N+](=O)[O-])c1" )
**Result** 83

**Query** # get_value(readout='growth inhibition', item= COC(=O)N1C2C=CC(=O)C(C=C2)N1C(=O)OC (stereo not given) )
**Result** 23

**Query** # get_value(readout='growth inhibition', item= "CC(=O)N(C1=CC(=O)c2ccccc2C1=O)c1ccc(Cl)cc1" )
**Result** 98

**Query** # get_value(readout='growth inhibition', item= "FC(F)(F)c1cccc(N2CCN(c3c4c(nc5ccccc35)CCCCC4)CC2)c1" )
**Result** 96

**Query** # get_value(readout='growth inhibition', item= CC12OC1C(=O)c1ccccc1C2=O (stereo not given) )
**Result** 65

**Query** # get_value(readout='growth inhibition', item= Fc1ccc(OCCC(Cn2ccnc2)c2ccc(Cl)cc2Cl)cc1 (stereo not given) )
**Result** 92

**Query** # get_value(readout='growth inhibition', item= CC1COC(=O)O1 (stereo not given) )
**Result** 2

**Query** # get_value(readout='growth inhibition', item= "O=C(O)/C=C/C(=O)Nc1cccc2ccccc12" )
**Result** 100

**Query** # get_value(readout='growth inhibition', item= "CC/C(=C(/CC)c1ccc(O)cc1)c1ccc([O-])cc1.CC/C(=C(/CC)c1ccc(O)cc1)c1ccc([O-])cc1.O=C([CH-]C(=O)c1ccccc1)c1ccccc1.O=C([CH-]C(=O)c1ccccc1)c1ccccc1.[Ti+4]" )
**Result** 96

**Query** # get_value(readout='growth inhibition', item= "CC(C)Cc1cc(O)cc2ccccc12" )
**Result** 97

**Query** # get_value(readout='growth inhibition', item= O=C(CC(O)c1ccccc1)Sc1ccccc1 (stereo not given) )
**Result** -7

**Query** # get_value(readout='growth inhibition', item= "Cc1c(C[n+]2cc3ccccc3cc2/C=N/O)ccc2ccccc12" )
**Result** -6

**Query** # get_value(readout='growth inhibition', item= Cc1cccc(N2CCN(CC(O)COc3ccc4ccccc4c3)CC2)c1 (stereo not given) )
**Result** -6

**Query** # get_value(readout='growth inhibition', item= "O=C1C(Cl)=C(Nc2ccc(S(=O)(=O)O)cc2)C(=O)c2ccccc21" )
**Result** 99
